Exercise: state measured IC50 for each of the compounds provided.
# System: HTT mRNA
# ASSAY_REMARKS: RT-qPCR splicing assay, HTT mRNA canonical (CJ) and alternative (AJ) junction
# Assay type: cell-based, human
# CONDITION_CONTEXT: Homo sapiens, HTT canonical junction mRNA, RT-qPCR; read-out: HTT CJ (decrease in CJ mRNA levels, IC50)

# value lookup — system HTT mRNA, readout IC50, item Cc1cn2cc(-c3ccc4nc(C5CCNCC5)ccc4n3)c(O)cc2n1 [Compound 149] > 10000 nM

# value lookup — system HTT mRNA, readout IC50, item CNc1nc(-c2cc3cn(C)nc3c(C)c2O)nc2ccc(N3CCNCC3)cc12 [Compound 508] > 10000 nM

# value lookup — system HTT mRNA, readout IC50, item CN[C@@H]1CCN(c2ccc3nc(-c4cc5cn(C)nc5c(C)c4O)ncc3n2)C1 (single isomer, unassigned) [Compound 368] 100 to 1000 nM

# value lookup — system HTT mRNA, readout IC50, item Cn1cc2cc(-c3ccc4nc(N5CCC(N)C5)ccc4n3)c(O)c(F)c2n1 (centres unmarked) [Compound 238] < 100 nM

# value lookup — system HTT mRNA, readout IC50, item CC(C)(C)NC1CCN(c2ccc3nc(-c4cc5oc(CO)nc5cc4O)ccc3n2)C1 (centres unmarked) [Compound 336] < 100 nM

# value lookup — system HTT mRNA, readout IC50, item Cn1cc2cc(-c3ccc4nc(N5CC[C@@H](NC6CCC6)C5)ccc4n3)c(O)cc2n1 [Compound 157] < 100 nM

# value lookup — system HTT mRNA, readout IC50, item Cc1cn2cc(-c3ccc4nc(N5CCC(NC(C)(C)C)C5)ccc4n3)nc(C)c2n1 (centres unmarked) [Compound 206] 1000 to 10000 nM

# value lookup — system HTT mRNA, readout IC50, item Cn1cc2cc(-c3ccc4nc(N5CCC(NC(C)(C)C)CC5)ccc4n3)c(O)cc2n1 [Compound 132] > 10000 nM

# value lookup — system HTT mRNA, readout IC50, item Cc1nc(-c2ccc3nc(N4CCC(NC(C)(C)C)C4)ccc3n2)cc2cn(C)nc12 (centres unmarked) [Compound 208] > 10000 nM

# value lookup — system HTT mRNA, readout IC50, item Cc1nc2c(C)c(O)c(-c3ccc4nc(N5CC[C@@H](NC6CC6)C5)ncc4n3)cc2o1 (single isomer, unassigned) [Compound 432] < 100 nM

# value lookup — system HTT mRNA, readout IC50, item CNC(=O)c1nc(-c2cc3cn(C)nc3cc2O)nc2ccc(N3C[C@H](C)N[C@@H](C)C3)cc12 (single isomer, unassigned) [Compound 676] 100 to 1000 nM

# value lookup — system HTT mRNA, readout IC50, item Cc1nc2c(C)c(O)c(-c3ccc4nc(N5CCC(NC6(C)CC6)C5)ccc4n3)cc2o1 (centres unmarked) [Compound 309] < 100 nM

# value lookup — system HTT mRNA, readout IC50, item Cc1c(O)c(-c2nc(-c3cncs3)c3cc(N4CCNCC4)ccc3n2)cc2cn(C)nc12 [Compound 519] > 10000 nM

# value lookup — system HTT mRNA, readout IC50, item Cn1cc2cc(-c3ncc4nc(C5CCNCC5)ccc4n3)c(O)cc2n1 [Compound 107] 100 to 1000 nM

# value lookup — system HTT mRNA, readout IC50, item CNC(=O)c1nc(-c2cc(F)c3nc(C)cn3c2)nc2ccc(N3CCNCC3)cc12 [Compound 505] 100 to 1000 nM

# value lookup — system HTT mRNA, readout IC50, item CNC(=O)c1nc(-c2cc3cn(C)nc3c(F)c2O)nc2ccc(N3C[C@@H](C)N[C@H](C)C3)cc12 (single isomer, unassigned) [Compound 668] 100 to 1000 nM

# value lookup — system HTT mRNA, readout IC50, item CNC(=O)c1nc(-c2cc3cn(C)nc3c(C)c2O)nc2ccc(N3C[C@@H](C)N[C@@H](C)C3)cc12 [Compound 511] 100 to 1000 nM

# value lookup — system HTT mRNA, readout IC50, item Cc1c(O)c(-c2cc(C(C)O)c3nc(N4CCNCC4)ccc3n2)cc2cn(C)nc12 (centres unmarked) [Compound 364] > 10000 nM

# value lookup — system HTT mRNA, readout IC50, item COc1cc(-c2ccc3nc(N4CCC(NC(C)(C)C)C4)ncc3n2)cnn1 (centres unmarked) [Compound 405] 1000 to 10000 nM

# value lookup — system HTT mRNA, readout IC50, item Cn1cc2cc(-c3ccc4nc(N5CC[C@@H](N[C@H]6C[C@@H](F)C6)C5)ccc4n3)c(O)cc2n1 (single isomer, unassigned) [Compound 300] < 100 nM

# value lookup — system HTT mRNA, readout IC50, item Cn1cc2cc(-c3ccc4nc(N5CCC(NC6CC6)C5)ccc4n3)c(O)c(F)c2n1 (racemic) [Compound 287, trifluoroacetic acid] < 100 nM

# value lookup — system HTT mRNA, readout IC50, item Cc1c(O)c(-c2ccc3nc(N4CC[C@H](NCC5CC5)C4)ccc3n2)cc2cn(C)nc12 (single isomer, unassigned) [Compound 321] < 100 nM

# value lookup — system HTT mRNA, readout IC50, item Cn1cc2nc(-c3ccc4nc(C5CCNCC5)ccc4n3)c(F)cc2n1 [Compound 205] 1000 to 10000 nM
